assay: Cytotoxicity against human PC-3MIE8 cells after 48 hrs by MTT assay; format: functional, cell-based; details: PC-3MIE8, 48 h
Outcome measure: IC50

[
  {
    "Compound": "CC(=O)/C=C\\C(=O)/C(C)=C/C=C/C(C)=C1\\C(=O)C[C@H]2[C@@]3(C)CC[C@H](OC(C)=O)C(C)(C)[C@@H]3CC[C@]12C [ISOGEODITIN B]",
    "Outcome measure": "IC50",
    "Observed result": "3.4 µg/mL"
  },
  {
    "Compound": "CC(=O)/C=C\\C(=O)/C(C)=C/C=C/C(C)=C1\\C(=O)C[C@H]2[C@@]3(C)CCC(=O)C(C)(C)[C@@H]3CC[C@]12C [ISOGEODITIN A]",
    "Outcome measure": "IC50",
    "Observed result": "0.07 µg/mL"
  },
  {
    "Compound": "CC(/C=C/C=C(\\C)C(=O)O)=C\\C=C\\C(C)=C1\\C(=O)C[C@H]2[C@@]3(C)CCC(=O)C(C)(C)[C@@H]3CC[C@]12C [RHABDASTRELLIC ACID A]",
    "Outcome measure": "IC50",
    "Observed result": "> 5 µg/mL"
  },
  {
    "Compound": "CC(/C=C/C=C(\\C)c1ccc(C)c(=O)o1)=C1/C(=O)C[C@H]2[C@@]3(C)CCC(=O)C(C)(C)[C@@H]3CC[C@]12C [STELLETTIN B]",
    "Outcome measure": "IC50",
    "Observed result": "> 5 µg/mL"
  },
  {
    "Compound": "CC1=CC[C@@H](/C(C)=C/C=C/C(C)=C2\\C(=O)C[C@H]3[C@@]4(C)CCC(=O)C(C)(C)[C@@H]4CC[C@]23C)OC1=O [22,23-DIHYDROSTELLETTIN B]",
    "Outcome measure": "IC50",
    "Observed result": "> 5 µg/mL"
  }
]

The reported measurements were obtained from ChEMBL document CHEMBL1148972.
